# Test system: CaCl2-induced plasma coagulation
# experiment notes: Anticoagulant activity on PRP, Hartert's thromboelastograph
# Format: in vivo, New Zealand rabbits
# condition set: Oryctolagus cuniculus, ip, percent increase of total time for coagulum formation (r+k) vs before treatment; 25 mg/kg intraperitoneal, rabbits; read-out: anticoagulant activity (AC)
measured parameter: change in vivo at 25 mg/kg (%)
One number for each entry, in %.

COc1cc(C(=O)NCc2cccnc2)cc(C(=O)NCc2cccnc2)c1OCC(C)(C)C [Example 37] :: 14.2
CCN(Cc1cccnc1)C(=O)c1ccc(OC)c(C(=O)N(CC)Cc2cccnc2)c1 [Example 40] :: 13.4
C=CCOc1c(C(=O)NCc2cccnc2)cc(C(=O)NCc2cccnc2)cc1[N+](=O)[O-] [Example 36] :: 11.9
C=CC(C)Oc1ccc(C(=O)NCc2cccnc2)cc1C(=O)NCc1cccnc1 (centres unmarked) [Example 54] :: 18.7
CCCCOc1c(Cl)cc(C(=O)NCc2cccnc2)cc1C(=O)NCc1cccnc1 [Example 26] :: 22.2
CCC(C)Oc1ccc(C(=O)NCc2cccnc2)cc1C(=O)NCc1cccnc1 (centres unmarked) [Example 14] :: 22.3
CCCCOc1ccc(C(=O)NCc2cccnc2)cc1C(=O)NCc1cccnc1 [Example 2] :: 23.2

Okay, now this compound:
Query :: So what's the measured change in vivo at 25 mg/kg for this one? CCCOc1ccc(C(=O)NCc2ccncc2)cc1C(=O)NCc1ccncc1 [Example 59]
Result :: 20.6

---

# Test system: thrombin-induced coagulation of platelet rich plasma
# experiment notes: Antithrombin activity on PRP, Hartert's thromboelastograph
# Format: in vivo, New Zealand rabbits
# condition set: Oryctolagus cuniculus, Platelet, ip, percent decrease of index ma/[r+k] vs before treatment; 20 mg/kg intraperitoneal, rabbits
Please respond with reported inhibition in vivo at 20 mg/kg for every item in the list.
Answers are plain numbers, in %.

// worked examples, inhibition in vivo at 20 mg/kg included
COc1cc(C(=O)NCc2cccnc2)cc(C(=O)NCc2cccnc2)c1OC1CCCC1 [Example 20] :: 32.6
CC=COc1c(Cl)cc(C(=O)N(Cc2cccnc2)CC(C)(C)C)cc1C(=O)N(Cc1cccnc1)CC(C)(C)C [Example 48] :: 27.6

Each of the following entries comes with a recorded value; kindly state inhibition in vivo at 20 mg/kg for each.
1. C#CCOc1ccc(C(=O)NCc2cccnc2)cc1C(=O)NCc1cccnc1 [Example 22]
2. COc1ccc(C(=O)N(C)Cc2cccnc2)cc1C(=O)N(C)Cc1cccnc1 [Example 39]
3. O=C(NCc1ccncc1)c1ccc(O)c(C(=O)NCc2ccncc2)c1 [Example 57]
4. C=CCOc1ccc(C(=O)NCc2cccnc2)cc1C(=O)NCc1cccnc1 [Example 7]

Result ::
[33.1, 26.6, 38.4, 51.5]

Provide inhibition in vivo at 20 mg/kg for all items below, preserving their order.
1. C=CC(C)Oc1ccc(C(=O)NCc2ccncc2)cc1C(=O)NCc1ccncc1 (stereo not drawn) [Example 64]
2. C=CCCCOc1ccc(C(=O)NCc2cccnc2)cc1C(=O)NCc1cccnc1 [Example 9]
3. CCN(Cc1cccnc1)C(=O)c1ccc(OC)c(C(=O)N(CC)Cc2cccnc2)c1 [Example 40]
4. CC(C)CCOc1ccc(C(=O)NCc2ccncc2)cc1C(=O)NCc1ccncc1 [Example 63]
5. CCCCCCCOc1ccc(C(=O)NCc2cccnc2)cc1C(=O)NCc1cccnc1 [Example 5]

Result ::
1: 45.9; 2: 49.9; 3: 28.9; 4: 29.2; 5: 46.5

Go through the items and report each one's inhibition in vivo at 20 mg/kg.
1. CC(C)=COc1ccc(C(=O)NCc2ccncc2)cc1C(=O)NCc1ccncc1 [Example 65]
2. CCC(CC)Oc1c(Cl)cc(C(=O)NCc2cccnc2)cc1C(=O)NCc1cccnc1 [Example 30]
3. CC=COc1c(Cl)cc(C(=O)N(Cc2cccnc2)C(C)(C)CC)cc1C(=O)N(Cc1cccnc1)C(C)(C)CC [Example 47]
4. O=C(NCc1cccnc1)c1cc(C(=O)NCc2cccnc2)c(O)c([N+](=O)[O-])c1 [Example 31]
5. C=CCOc1c(Cl)cc(C(=O)NCc2ccncc2)cc1C(=O)NCc1ccncc1 [Example 67]
6. CCCCOc1c(Cl)cc(C(=O)NCc2cccnc2)cc1C(=O)NCc1cccnc1 [Example 26]
7. CC(C)=COc1ccc(C(=O)NCc2cccnc2)cc1C(=O)NCc1cccnc1 [Example 55]

Result ::
1: 34.2; 2: 27.9; 3: 25.6; 4: 23.1; 5: 39.8; 6: 33.5; 7: 32.5

All figures here come from patent US4294833A.
